assay: viability loss with induced miR-34 in A549 – imaging, A549 dox-inducible miR-34, nuclei and caspase counts, primary screen (AID 1347080); conditions: A549 miR-34 inducible, Hoechst nuclei count, 48 h; measured here: total cells without miR-34 induction; also: test concentration not given here
readout.type: cell count
Answer as a number with no unit attached.

>>> df
                                   compound  readout_type  observed_value
0  O=C(O)C1(Cc2cccc(Nc3nccs3)n2)CCC(Oc2cccc(Cl)c2F)CC1 (centres undefined)    cell count            3280
1  OC[C@H]1O[C@@H](n2cnc3c(N[C@H]4CCC[C@@H]4O)ncnc32)[C@H](O)[C@@H]1O    cell count            9190
2  CCCCC(C)(C)[C@H](O)/C=C/[C@@H]1[C@@H](C/C=C\CCCC(=O)O)[C@@H](O)C[C@H]1O    cell count            5800
3  CCCCCCCCCCCCCCCCOC[C@H](COP(=O)([O-])OCC[N+](C)(C)C)OCC    cell count            5580
4  Cc1cnc(Nc2ccc(OCCN3CCCC3)cc2)nc1Nc1cccc(S(=O)(=O)NC(C)(C)C)c1    cell count            2450
5  CCCCC[C@@H](O)/C=C/[C@H]1[C@H](O)CC(=O)[C@@H]1CCCCCCC(=O)O    cell count            5600

Input: Any idea what cell count was measured for O=C(Nc1ccc2c(=O)cc(-c3nn[nH]n3)oc2c1)c1ccc(OCCCCc2ccccc2)cc1 ?
Output: 7840

Input: Now the same for NC(C(=O)O)c1ccc(C(=O)O)c(O)c1 (centres undefined)
Output: 9350

Input: Now the same for O=C(O)CCC/C=C\C[C@@H]1[C@@H](/C=C/[C@H](O)CCc2ccccc2)[C@H](O)C[C@@H]1O
Output: 5830
